These data points were gathered from ChEMBL document CHEMBL5316287.

Molecular target: Histone acetyltransferase KAT2B (Homo sapiens)
Sequence (Q92831 whole entry): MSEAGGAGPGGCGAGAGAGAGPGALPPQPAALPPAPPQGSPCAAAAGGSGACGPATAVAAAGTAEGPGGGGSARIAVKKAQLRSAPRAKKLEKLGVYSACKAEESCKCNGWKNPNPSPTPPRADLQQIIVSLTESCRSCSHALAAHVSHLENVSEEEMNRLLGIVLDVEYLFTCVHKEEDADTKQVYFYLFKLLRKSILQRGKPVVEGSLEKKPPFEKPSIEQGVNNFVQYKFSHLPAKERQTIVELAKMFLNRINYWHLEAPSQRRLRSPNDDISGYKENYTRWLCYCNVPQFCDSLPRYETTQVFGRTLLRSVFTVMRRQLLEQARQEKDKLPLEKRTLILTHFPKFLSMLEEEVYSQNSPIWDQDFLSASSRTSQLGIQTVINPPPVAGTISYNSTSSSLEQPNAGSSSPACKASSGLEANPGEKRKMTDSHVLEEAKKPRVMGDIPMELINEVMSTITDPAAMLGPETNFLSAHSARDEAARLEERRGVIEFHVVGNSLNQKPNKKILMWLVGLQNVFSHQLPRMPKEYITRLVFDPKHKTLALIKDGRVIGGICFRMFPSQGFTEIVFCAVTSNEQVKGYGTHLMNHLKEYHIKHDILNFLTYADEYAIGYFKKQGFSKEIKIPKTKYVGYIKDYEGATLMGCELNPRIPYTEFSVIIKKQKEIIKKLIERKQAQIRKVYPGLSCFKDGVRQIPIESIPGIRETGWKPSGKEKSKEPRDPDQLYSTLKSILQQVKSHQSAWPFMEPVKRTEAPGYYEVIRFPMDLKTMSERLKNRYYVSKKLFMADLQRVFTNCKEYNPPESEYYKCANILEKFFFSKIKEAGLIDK
Assay: Inhibition of PCAF (unknown origin) biotinylated H3 (1 to […])-GGK peptide as substrate incubated for 1 hr in presence of acetyl-coA by AlphaLISA assay
MEASURE NAME: IC50

Task: Data request, read-out IC50, for COc1ccc(C2(C(=O)N3C[C@H](F)C[C@@H]3C(=O)Nc3ccc4[nH]ncc4n3)CCC(F)(F)CC2)cc1
Result: > 50 µM

---

Experiment: Volume of distribution at steady state in BALB/cAnNCrlCrlj mouse at 2 mg/kg,iv administered as DMA/Tween80/saline (1:1:8 ratio) solution
Type: ADME, organism-based
Conditions: in vivo, read-out: Vdss
MEASURE NAME: Vd (L/kg)
Numbers only, in L/kg.

Task: Data request, read-out Vd, for COc1ccc(C2(C(=O)N3CCOCC(Cc4cccc5[nH]ncc45)C3)CCCC2)cc1 (stereo unspecified)
Result: 1.76

---

Assay: Half life in BALB/cAnNCrlCrlj mouse at 10 mg/kg,po
Assay type: ADME, organism-based
Settings: in vivo
Give measured half-life for each item. Keep answers brief.
Param answer (str): number followed by unit.

COc1ccc(C2(C(=O)N3C[C@H](F)C[C@@H]3C(=O)Nc3ccc4[nH]ncc4n3)CC(F)(F)C2)cc1 :: 2.1 h
COc1ccc(C2(C(=O)N3C[C@H](F)C[C@@H]3C(=O)Nc3ccc4[nH]ncc4n3)CCC(F)(F)CC2)cc1 :: 2.4 h

List the reported half-life of each compound below.
1. COc1ccc(C2(C(=O)N3CCOCC(Cc4cccc5[nH]ncc45)C3)CCCC2)cc1 (centres undefined)
2. O=C(Nc1ccc2[nH]ncc2n1)[C@H]1C[C@@H](F)CN1C(=O)C1(c2ccc(O)cc2)CCCCC1

Result:
["2 h", "2.8 h"]

---

Experiment: AUC in BALB/cAnNCrlCrlj mouse at 10 mg/kg,po
Assay type: ADME, organism-based
Parameters: dose 10 mg/kg, route po
Conditions: BALB/cAnNCrlCrlj, in vivo, read-out: AUC
Param threshold (0.9 µM·h) applies to AUC; output TRUE when value >= threshold, FALSE when value < threshold.

Task: Reported AUC at or above 0.9 µM·h? CS(=O)(=O)c1ccc(C2(C(=O)N3C[C@H](F)C[C@@H]3C(=O)Nc3ccc4[nH]ncc4n3)CCC(F)(F)CC2)cc1
Result: FALSE

Task: Okay, and COc1ccc(C2(C(=O)N3CCC[C@@H]3C(=O)Nc3cccc4[nH]ncc34)CCCC2)cc1 ?
Result: FALSE

Task: Okay, and O=C(Nc1ccc2[nH]ncc2n1)[C@H]1C[C@@H](F)CN1C(=O)C1(c2ccc(O)cc2)CCCCC1 ?
Result: FALSE

Task: Okay, and COc1ccc(C2(C(=O)N3C[C@H](F)C[C@@H]3C(=O)Nc3ccc4[nH]ncc4n3)CC(F)(F)C2)cc1 ?
Result: TRUE

Task: Okay, and COc1ccc(C2(C(=O)N3C[C@H](F)C[C@@H]3C(=O)Nc3ccc4[nH]ncc4n3)CCCCC2)cc1F ?
Result: TRUE

---

Target: Histone acetyltransferase p300 (Homo sapiens, UniProt Q09472)
Sequence (Q09472 whole entry): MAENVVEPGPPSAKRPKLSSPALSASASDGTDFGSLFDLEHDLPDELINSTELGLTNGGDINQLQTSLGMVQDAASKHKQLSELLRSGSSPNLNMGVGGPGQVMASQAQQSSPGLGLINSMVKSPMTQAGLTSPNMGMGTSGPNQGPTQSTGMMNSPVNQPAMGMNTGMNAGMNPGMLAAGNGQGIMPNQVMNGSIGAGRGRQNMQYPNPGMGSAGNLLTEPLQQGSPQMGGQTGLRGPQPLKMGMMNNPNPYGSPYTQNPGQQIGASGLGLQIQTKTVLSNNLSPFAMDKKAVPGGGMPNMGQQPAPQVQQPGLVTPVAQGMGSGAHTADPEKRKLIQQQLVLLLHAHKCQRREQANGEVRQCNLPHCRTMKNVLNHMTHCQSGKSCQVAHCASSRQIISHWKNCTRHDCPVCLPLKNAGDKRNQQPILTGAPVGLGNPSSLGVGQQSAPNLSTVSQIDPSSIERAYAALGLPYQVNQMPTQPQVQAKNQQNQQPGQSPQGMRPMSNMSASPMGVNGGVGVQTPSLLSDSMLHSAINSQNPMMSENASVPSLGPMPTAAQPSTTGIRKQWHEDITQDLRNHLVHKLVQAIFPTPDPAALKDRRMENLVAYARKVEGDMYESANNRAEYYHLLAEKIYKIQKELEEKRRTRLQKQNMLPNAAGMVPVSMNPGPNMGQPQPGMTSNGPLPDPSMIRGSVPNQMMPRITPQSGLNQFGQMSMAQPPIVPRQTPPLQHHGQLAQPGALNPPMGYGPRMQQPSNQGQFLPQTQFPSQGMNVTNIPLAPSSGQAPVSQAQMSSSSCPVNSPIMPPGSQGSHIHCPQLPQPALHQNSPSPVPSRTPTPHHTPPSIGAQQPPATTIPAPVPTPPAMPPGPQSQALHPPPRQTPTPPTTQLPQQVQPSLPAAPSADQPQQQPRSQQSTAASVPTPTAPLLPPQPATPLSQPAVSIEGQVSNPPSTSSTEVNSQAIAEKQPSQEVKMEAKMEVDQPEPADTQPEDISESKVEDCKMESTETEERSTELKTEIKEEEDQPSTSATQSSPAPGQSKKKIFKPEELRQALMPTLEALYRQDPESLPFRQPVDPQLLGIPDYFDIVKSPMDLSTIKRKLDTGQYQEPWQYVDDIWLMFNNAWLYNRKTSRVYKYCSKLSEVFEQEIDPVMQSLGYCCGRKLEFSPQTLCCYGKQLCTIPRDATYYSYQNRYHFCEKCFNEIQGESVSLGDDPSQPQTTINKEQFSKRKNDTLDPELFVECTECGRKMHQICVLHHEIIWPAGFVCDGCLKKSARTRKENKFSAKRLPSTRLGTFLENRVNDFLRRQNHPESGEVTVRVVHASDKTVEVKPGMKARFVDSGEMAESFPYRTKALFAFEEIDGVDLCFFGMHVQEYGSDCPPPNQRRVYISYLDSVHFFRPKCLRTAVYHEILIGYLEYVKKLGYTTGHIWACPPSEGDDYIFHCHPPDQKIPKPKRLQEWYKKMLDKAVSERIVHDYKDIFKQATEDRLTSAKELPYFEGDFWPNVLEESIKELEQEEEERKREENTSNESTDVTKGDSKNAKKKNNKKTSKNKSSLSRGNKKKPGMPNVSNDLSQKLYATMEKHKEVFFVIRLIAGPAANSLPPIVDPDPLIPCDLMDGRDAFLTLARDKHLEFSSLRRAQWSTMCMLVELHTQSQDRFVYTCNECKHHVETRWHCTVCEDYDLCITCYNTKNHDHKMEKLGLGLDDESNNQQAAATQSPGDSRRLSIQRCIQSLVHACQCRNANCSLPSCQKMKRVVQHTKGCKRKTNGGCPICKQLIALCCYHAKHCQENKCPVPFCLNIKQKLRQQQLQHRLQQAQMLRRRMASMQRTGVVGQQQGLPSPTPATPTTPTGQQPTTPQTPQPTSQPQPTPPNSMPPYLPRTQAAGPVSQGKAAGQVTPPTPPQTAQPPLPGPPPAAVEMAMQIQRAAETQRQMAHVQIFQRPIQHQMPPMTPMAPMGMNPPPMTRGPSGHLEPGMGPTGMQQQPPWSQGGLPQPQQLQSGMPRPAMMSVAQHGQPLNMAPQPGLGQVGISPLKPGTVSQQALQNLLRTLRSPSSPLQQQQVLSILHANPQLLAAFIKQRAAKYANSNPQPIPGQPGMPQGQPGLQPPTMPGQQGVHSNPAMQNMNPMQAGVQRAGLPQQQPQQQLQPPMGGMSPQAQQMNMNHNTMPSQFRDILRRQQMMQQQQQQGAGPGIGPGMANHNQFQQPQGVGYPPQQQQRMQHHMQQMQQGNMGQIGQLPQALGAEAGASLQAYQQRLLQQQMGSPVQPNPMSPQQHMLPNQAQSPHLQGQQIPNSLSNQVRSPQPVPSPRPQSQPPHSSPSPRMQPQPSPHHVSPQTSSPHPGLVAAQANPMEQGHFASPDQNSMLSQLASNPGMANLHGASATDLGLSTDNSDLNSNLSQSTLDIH
Assay: Inhibition of EP300 in human LK2 cells assessed as reduction in intracellular H3K27 acetylation incubated for 3 hrs by chemiluminescence based ELISA
Format: cell-based
pIC50: −log10 of the molar value.
Param threshold (7) applies to pIC50; output Criterion met when value >= threshold, Criterion not met when value < threshold.

COc1ccc(C2(C(=O)N3C[C@H](F)C[C@@H]3C(=O)Nc3ccc4[nH]ncc4n3)CC(C)(C)C2)cc1 :: Criterion met
COc1ccc(C2(C(=O)N3C[C@H](F)C[C@@H]3C(=O)Nc3ccc4[nH]ncc4n3)CCCCC2)cn1 :: Criterion met
COc1ccc(C2(C(=O)N3C[C@H](F)C[C@@H]3C(=O)Nc3ccc4[nH]ncc4n3)CCC(F)(F)CC2)cc1 :: Criterion met
COc1ccc(C2(C(=O)N3C[C@H](F)C[C@@H]3C(=O)Nc3ccc4[nH]ncc4n3)CCCCC2)cc1F :: Criterion met
COc1ccc(C2(C(=O)N3CCC[C@@H]3C(=O)Nc3ccc4[nH]ccc4c3)CCCC2)cc1 :: Criterion not met

Task: Reported pIC50 at or above 7? COc1ccc(C2(C(=O)N3C[C@H](F)C[C@@H]3C(=O)Nc3ccc4[nH]ncc4n3)CCC(F)(F)CC2)cc1F
Result: Criterion met

Task: Okay, and COc1ccc(C2(C(=O)N3CCC[C@@H]3C(=O)Nc3ccc4[nH]ncc4n3)CCCC2)cc1 ?
Result: Criterion met
